test: qHTS assay to identify small molecule antagonists of the constitutive androstane receptor (CAR) signaling pathway - cell viability counter screen (AID 1224837); also: nearly all actives have a fitted effect of over 45% in size
reported.conditions: HepG2-CYP2B6-hCAR viability, CellTiter-Fluor, 23 h, co-treated with 50 nM CITCO; series mostly up to 92.4 µM
Results filed as inconclusive are left out. Calls of active or inactive are those of the source. Calls follow the shape of the dose curve; as a rule, active = well fitted cell-killing curve with a large enough effect in the repeat runs; inconclusive = weak or mixed curves, or effect the other way; inactive = flat fitted curve, though single readings scatter.
Your reply should match one of these outcome classes. active, inactive

Reference set, count: 8
compound: O=c1oc2ccccc2c(O)c1C1CCCc2ccccc21 (configuration not stated)
class.label: inactive

compound: Cc1cc(C)nc(Nc2ccccc2)n1
class.label: inactive

compound: CCOP(=S)(Oc1cnc(C(C)(C)C)nc1)OC(C)C (configuration not stated)
class.label: inactive

compound: O=C(N[C@H]1CN2CCC1CC2)c1cc2ccoc2cn1
class.label: inactive

compound: CC1=NNC(=O)N(/N=C/c2cccnc2)C1
class.label: inactive

compound: CC(N)=S
class.label: inactive

compound: CNC(=O)Oc1cccc(C(C)C)c1
class.label: inactive

compound: O=C(Nc1ccccc1)N(Cc1ccc(Cl)cc1)C1CCCC1
class.label: active

INPUT: State the result this test recorded for [As]#[In] .
OUTPUT: inactive

INPUT: State the result this test recorded for C1CCC(C2CCCCC2)CC1 .
OUTPUT: inactive

INPUT: State the result this test recorded for ClCCCN1CCN(c2cccc(Cl)c2)CC1 .
OUTPUT: inactive

INPUT: State the result this test recorded for CCOC(=O)NC(=S)Nc1ccccc1NC(=S)NC(=O)OCC .
OUTPUT: inactive

INPUT: State the result this test recorded for N#Cc1ccncc1 .
OUTPUT: inactive

INPUT: State the result this test recorded for C[C@@H]1CN(C2CCC(C#N)(c3ccc(F)cc3)CC2)CC[C@]1(C(=O)O)c1ccccc1 (some centres not stated) .
OUTPUT: inactive

INPUT: State the result this test recorded for C#C[C@]1(O)C=C[C@H]2[C@@H]3CCC4=CC(=O)CC[C@@H]4[C@H]3CC[C@@]21CC .
OUTPUT: inactive

INPUT: State the result this test recorded for CCOc1nc(C(Cl)(Cl)Cl)ns1 .
OUTPUT: inactive

INPUT: State the result this test recorded for CNC(=O)O/N=C(\C)SC .
OUTPUT: inactive

----------
target.entity: Estrogen receptor (Homo sapiens) (UniProt P03372)
Sequence (P03372 whole entry, looked up): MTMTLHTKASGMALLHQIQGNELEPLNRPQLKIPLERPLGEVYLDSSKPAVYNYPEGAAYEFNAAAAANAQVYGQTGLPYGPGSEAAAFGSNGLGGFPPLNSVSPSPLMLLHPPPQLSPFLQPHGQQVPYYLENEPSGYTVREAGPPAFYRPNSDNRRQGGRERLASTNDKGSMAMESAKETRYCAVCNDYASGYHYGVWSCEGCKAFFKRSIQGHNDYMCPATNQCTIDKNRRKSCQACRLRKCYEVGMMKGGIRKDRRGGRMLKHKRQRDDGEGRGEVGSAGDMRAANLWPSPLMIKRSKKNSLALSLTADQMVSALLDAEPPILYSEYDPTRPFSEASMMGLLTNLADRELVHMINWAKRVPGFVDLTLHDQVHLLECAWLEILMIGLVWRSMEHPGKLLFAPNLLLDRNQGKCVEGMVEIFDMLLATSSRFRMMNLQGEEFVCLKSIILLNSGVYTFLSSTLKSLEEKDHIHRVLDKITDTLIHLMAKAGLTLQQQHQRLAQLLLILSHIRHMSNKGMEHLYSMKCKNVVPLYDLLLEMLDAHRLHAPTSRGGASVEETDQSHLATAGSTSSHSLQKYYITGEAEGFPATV
test: qHTS assay to identify small molecule agonists of the estrogen receptor alpha (ER-alpha) signaling pathway using the BG1 cell line (AID 743079); also: % is scaled to controls: 0 for no effect and ±100 for the full control effect; nearly all actives have a fitted effect of over 20% in size
reported.conditions: BG1Luc4E2 cells, ERE-luciferase agonist, 22 h; at 70.3 µM (top of the series)
Inconclusive results are not listed.
Please go through the items and note down their activation.
Give bare numbers, in %.

Guide cases for activation, answers given:
compound: CC1CN1P(=O)(N1CC1C)N1CC1C (configuration not stated)
parameter.measured: activation
unit.abbrev: %
measured: -10.3

compound: C[C@H]1CCC[C@H](O)CCCCCc2cc(O)cc(O)c2C(=O)O1
parameter.measured: activation
unit.abbrev: %
measured: -0.266

compound: CCS(=O)(=O)C(C)(C)S(=O)(=O)CC
parameter.measured: activation
unit.abbrev: %
measured: 0.0569

compound: CC(C)CP(=S)(S)CC(C)C
parameter.measured: activation
unit.abbrev: %
measured: -12.9

compound: Cc1cc(C)c(C(=O)P(=O)(C(=O)c2c(C)cc(C)cc2C)c2ccccc2)c(C)c1
parameter.measured: activation
unit.abbrev: %
measured: 37.1

Quick batch: activation for everything below.
1. Nc1ccccc1Cl
2. C[N+](C)=CCl

OUTPUT:
1. -8.6
2. 20.5

----------
target.entity: Peroxisome proliferator-activated receptor gamma (Homo sapiens) (UniProt P37231)
Sequence (P37231 whole entry, looked up): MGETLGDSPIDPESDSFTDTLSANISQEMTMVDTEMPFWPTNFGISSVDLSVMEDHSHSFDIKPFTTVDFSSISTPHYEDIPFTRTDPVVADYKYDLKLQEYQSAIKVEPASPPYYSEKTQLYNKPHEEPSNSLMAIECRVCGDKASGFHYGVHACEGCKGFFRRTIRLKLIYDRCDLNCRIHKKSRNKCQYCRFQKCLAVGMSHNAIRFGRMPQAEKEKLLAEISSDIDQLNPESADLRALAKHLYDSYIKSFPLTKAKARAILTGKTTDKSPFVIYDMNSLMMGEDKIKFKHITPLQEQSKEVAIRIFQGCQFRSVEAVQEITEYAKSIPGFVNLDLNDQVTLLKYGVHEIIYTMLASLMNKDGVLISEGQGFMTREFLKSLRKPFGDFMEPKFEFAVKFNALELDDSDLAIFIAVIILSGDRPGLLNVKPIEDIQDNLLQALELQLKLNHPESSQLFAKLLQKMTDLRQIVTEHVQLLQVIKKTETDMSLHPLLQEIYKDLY
test: qHTS assay to identify small molecule antagonists of the peroxisome proliferator-activated receptor gamma (PPARg) signaling pathway (AID 743191); also: nearly all actives have a fitted effect of over 30% in size
reported.conditions: HEK293H PPARg-UAS-bla, beta-lactamase ratio, antagonist, 17 h; series mostly up to 62.6 µM
Records with an inconclusive call do not appear. The source made the active and inactive calls. Calls follow the shape of the full dose curve.
Your reply should match one of these outcome classes. active, inactive

INPUT: State the result this test recorded for NC(=O)c1cc([N+](=O)[O-])cc([N+](=O)[O-])c1 .
OUTPUT: inactive

INPUT: State the result this test recorded for CC(N)=S .
OUTPUT: inactive

INPUT: State the result this test recorded for O=C(Oc1ccc(Br)cc1)N1CCN2CCC1CC2 .
OUTPUT: inactive

INPUT: State the result this test recorded for O=C(N[C@H]1CN2CCC1CC2)c1cc2ccoc2cn1 .
OUTPUT: inactive

INPUT: State the result this test recorded for CCOC(=O)C(c1c(O)c2ccccc2oc1=O)c1c(O)c2ccccc2oc1=O .
OUTPUT: active

INPUT: State the result this test recorded for O=[N+]([O-])c1cccc2cccnc12 .
OUTPUT: inactive

INPUT: State the result this test recorded for CC(C)(C)C(=O)C(Oc1ccc(Cl)cc1)n1cncn1 (configuration not stated) .
OUTPUT: inactive

----------
test: A CellTox Green Cytotoxicity Assay to monitor cytotoxicity in HepG2 cells - 16 hour (AID 1224876); also: % is scaled to controls: 0 for no effect and ±100 for the full control effect; nearly all actives have a fitted effect of over 45% in size
reported.conditions: CellTox Green fluorescence; series mostly up to 76.8 µM
Inconclusive results are not listed. Activity calls are given as the source filed them. Calls come from the whole dose curve; as a rule, active = well fitted activation curve with a large enough effect in the repeat runs; inconclusive = weak or mixed curves; inactive = flat fitted curve, though single readings scatter.
parameter.measured: outcome

Guide cases for outcome, answers given:
compound: COC(=O)C(c1ccccc1)C1CCCCN1 (stereo unspecified)
parameter.measured: outcome
measured: inactive

compound: [As]#[In]
parameter.measured: outcome
measured: inactive

compound: CCOP(=S)(OCC)SCSc1ccc(Cl)cc1
parameter.measured: outcome
measured: inactive

compound: C#C[C@]1(O)C=C[C@H]2[C@@H]3CCC4=CC(=O)CC[C@@H]4[C@H]3CC[C@@]21CC
parameter.measured: outcome
measured: inactive

compound: CC(=O)[C@H]1CC[C@H]2[C@@H]3CC[C@H]4C[C@H](O)CC[C@]4(C)[C@H]3C(=O)C[C@]12C
parameter.measured: outcome
measured: inactive

# next compound below
INPUT: Input Cc1ncc2n1-c1ccc(Cl)cc1C(c1ccccc1F)=NC2 , output reported outcome.
OUTPUT: inactive

----------
target.entity: Aryl hydrocarbon receptor (Homo sapiens) (UniProt P35869)
Sequence (P35869 whole entry, looked up): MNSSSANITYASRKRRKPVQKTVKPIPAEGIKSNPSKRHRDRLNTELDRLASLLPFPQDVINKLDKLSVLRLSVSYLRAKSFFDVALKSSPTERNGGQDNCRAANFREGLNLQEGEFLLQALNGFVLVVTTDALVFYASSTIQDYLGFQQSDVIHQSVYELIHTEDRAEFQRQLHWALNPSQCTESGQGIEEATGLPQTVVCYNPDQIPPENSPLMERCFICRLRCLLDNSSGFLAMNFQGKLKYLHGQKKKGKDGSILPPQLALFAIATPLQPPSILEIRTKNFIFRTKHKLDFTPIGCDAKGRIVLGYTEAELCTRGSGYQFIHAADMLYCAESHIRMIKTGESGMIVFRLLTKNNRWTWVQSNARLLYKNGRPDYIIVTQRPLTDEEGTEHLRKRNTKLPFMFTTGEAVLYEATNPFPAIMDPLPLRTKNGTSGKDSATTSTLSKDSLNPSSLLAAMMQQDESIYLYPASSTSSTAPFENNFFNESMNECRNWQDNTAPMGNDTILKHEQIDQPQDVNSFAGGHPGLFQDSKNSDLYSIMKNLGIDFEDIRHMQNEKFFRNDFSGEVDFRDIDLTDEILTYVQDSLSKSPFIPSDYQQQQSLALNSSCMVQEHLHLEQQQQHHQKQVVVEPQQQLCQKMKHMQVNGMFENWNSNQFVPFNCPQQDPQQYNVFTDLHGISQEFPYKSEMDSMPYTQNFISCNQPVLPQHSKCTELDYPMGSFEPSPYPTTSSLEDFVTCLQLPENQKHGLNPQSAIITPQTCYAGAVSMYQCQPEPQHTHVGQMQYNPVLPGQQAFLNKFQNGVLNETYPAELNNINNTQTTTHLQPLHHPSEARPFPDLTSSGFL
test: qHTS assay to identify small molecule that activate the aryl hydrocarbon receptor (AhR) signaling pathway (AID 743085); also: nearly all actives have a fitted effect of over 15% in size;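 as to activation: HG2L7.5c1 human HepG2 liver cells with stably integrated DRE-driven firefly reporter; % is scaled to controls: 0 for no effect and ±100 for the full control effect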
reported.conditions: HepG2 AhR-luc (HG2L7.5c1), luciferase, 24 h; series mostly up to 70.3 µM
Description: U.S. Tox21 Program National Center for Advancing Translational Sciences [NCATS] NIH Chemical Genomics Center [NCGC] U.S. Environmental Protection Agency [EPA] National Institutes of Environmental Health Sciences [NIEHS] National Toxicology Program [NTP] U.S. Food and Drug Administration [FDA] Tox21 Assay overview: The Aryl hydrocarbon Receptor (AhR), a member of the family of basic helix-loop-helix transcription factors, is crucial to adaptive responses to environmental changes. […]
Inconclusive results are not listed. Activity calls are given as the source filed them. Calls come from the whole dose curve; as a rule, active = well fitted activation curve with a large enough effect in the repeat runs; inconclusive = weak or mixed curves; inactive = no such curve, though single readings can be large or run the other way.
Your reply should match one of these outcome classes. active, inactive

Reference set, count: 4
compound: N#CCBr
class.label: inactive
--
compound: CC(C)(C)C(=O)C(Oc1ccc(Cl)cc1)n1cncn1 (stereo not given)
class.label: active
--
compound: c1cc2c(c(N3CCNCC3)c1)OCCO2
class.label: inactive
--
compound: CC1=C(C(=O)Nc2ccccc2)S(=O)(=O)CCO1
class.label: inactive

Then there is this compound:
INPUT: State the result this test recorded for COc1cc(OC)nc(NC(=O)NS(=O)(=O)c2ncccc2C(=O)N(C)C)n1 .
OUTPUT: inactive

----------
target.entity: Nuclear receptor ROR-gamma (Homo sapiens) (UniProt P51449)
test: qHTS assay to identify small molecule antagonists of the retinoid-related orphan receptor gamma (ROR-gamma) signaling pathway (AID 1159521; also: nearly all actives have a fitted effect of over 50% in size)
reported.conditions: Tet-on RORgamma CHO cells, RORE-luciferase, 16 h; series mostly up to 92.4 µM
Records with an inconclusive call do not appear. Calls of active or inactive are those of the source. Calls follow the shape of the dose curve; as a rule, active = well fitted inhibition curve with a large enough effect in the repeat runs; inconclusive = weak or mixed curves, or effect the other way; inactive = no such curve, though single readings can be large or run the other way.
Your reply should match one of these outcome classes. active, inactive

Reference set, count: 2
compound: O=NN1CCN(N=O)CC1
class.label: inactive
--
compound: O=C1OC(CCN2CCCCC2)OC1(c1ccccc1)c1ccccc1 (configuration not stated)
class.label: inactive

INPUT: State the result this test recorded for COC(=O)C1=CCCN(C)C1 .
OUTPUT: inactive

INPUT: State the result this test recorded for NC(=O)O .
OUTPUT: inactive

INPUT: State the result this test recorded for CCSC(=O)N(CC)C1CCCCC1 .
OUTPUT: inactive

INPUT: State the result this test recorded for NC(=S)C(N)=S .
OUTPUT: inactive

INPUT: State the result this test recorded for CCS(=O)(=O)CCSP(=O)(OC)OC .
OUTPUT: inactive

INPUT: State the result this test recorded for c1cc[c]([Hg][c]2ccccc2)cc1 .
OUTPUT: active

INPUT: State the result this test recorded for CCCSC(=O)Cl .
OUTPUT: inactive

INPUT: State the result this test recorded for O=C(Nc1ccccc1)N(Cc1ccc(Cl)cc1)C1CCCC1 .
OUTPUT: active

INPUT: State the result this test recorded for CCCCOC(=O)[C@@H](C)Oc1ccc(Oc2ccc(C#N)cc2F)cc1 .
OUTPUT: inactive

INPUT: State the result this test recorded for CC1(C)C(=O)NC(=O)NC1=O .
OUTPUT: inactive

INPUT: State the result this test recorded for CNC(=O)Oc1ccc(N(C)C)c(C)c1 .
OUTPUT: inactive

INPUT: State the result this test recorded for CNNC .
OUTPUT: inactive

INPUT: State the result this test recorded for Cc1ncc2n1-c1ccc(Cl)cc1C(c1ccccc1F)=NC2 .
OUTPUT: inactive

INPUT: State the result this test recorded for Nc1cc(Cl)ccc1O .
OUTPUT: inactive

INPUT: State the result this test recorded for CCCSP(=O)(OCC)Oc1ccc(Br)cc1Cl (configuration not stated) .
OUTPUT: inactive

INPUT: State the result this test recorded for C[C@]12CC[C@H]3[C@@H](CCC4=CC(=O)CC[C@@]43C)[C@@H]1CC[C@@H]2C(=O)O .
OUTPUT: inactive

INPUT: State the result this test recorded for CC(C)(C)C(=O)C(Oc1ccc(Cl)cc1)n1cncn1 (configuration not stated) .
OUTPUT: inactive

INPUT: State the result this test recorded for CC(C(O)c1ccccc1)N(C)C/C=C/c1ccccc1 (configuration not stated) .
OUTPUT: inactive

INPUT: State the result this test recorded for COc1ncc(F)c2nc(S(=O)(=O)Nc3c(F)cccc3F)nn12 .
OUTPUT: inactive

INPUT: State the result this test recorded for CCOc1nc(C(Cl)(Cl)Cl)ns1 .
OUTPUT: inactive

Attribution: PubChem BioAssay (Tox21)
